# experimentNotes: self-splicing fitness, log relative to wild type (ln ratio); higher = more splicing; Tetrahymena group I intron in knt gene, E. coli kanamycin selection, DiMSum; sequences stand for … in CUCUCU…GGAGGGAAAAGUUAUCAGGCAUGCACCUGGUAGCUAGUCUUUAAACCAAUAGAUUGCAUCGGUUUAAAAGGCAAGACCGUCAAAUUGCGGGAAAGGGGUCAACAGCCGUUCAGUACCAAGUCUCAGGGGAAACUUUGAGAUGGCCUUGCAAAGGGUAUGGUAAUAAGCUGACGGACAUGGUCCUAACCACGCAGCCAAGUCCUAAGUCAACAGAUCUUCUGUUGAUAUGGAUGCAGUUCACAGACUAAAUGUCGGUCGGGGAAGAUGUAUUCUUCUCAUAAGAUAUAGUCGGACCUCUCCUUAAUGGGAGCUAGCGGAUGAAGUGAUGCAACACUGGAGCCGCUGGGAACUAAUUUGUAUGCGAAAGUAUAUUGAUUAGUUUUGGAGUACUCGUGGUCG;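 further: selection with 25 µg/mL kanamycin versus none on LB agar overnight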
# appliedConditions: 30 °C
reportedMetric: self-splicing fitness (ln)
I only need the number, thanks.

Example entries begin here.
# residues, valueReported
data = [
    ("AUACAGCAAUAUUACGGGAC", -2.14),
    ("UGCUAGCAAUAUUACGUACA", 0.0476),
    ("UAGGAGCAAUAUUACGAUCG", -1.65),
    ("ACAAAGCAAUAUUACGCGGU", -3.37),
    ("AUUUAGCAAUAUUACGAACC", -2.12),
    ("UGCAAGCAAUAUUACGGAUA", -1.68),
    ("UAUUAGCAAUAUUACGCCAG", -1.17),
    ("AAGCAGCAAUAUUACGCGAC", -0.688),
    ("GGGUAGCAAUAUUACGACGU", -0.726),
    ("AGGUAGCAAUAUUACGACUU", -0.167),
]

Problem: Requested field: self-splicing fitness (ln). Item: `ACGCAGCAAUAUUACGUUCG`
Solution: -1.24

Problem: Requested field: self-splicing fitness (ln). Item: `AAAUAGCAAUAUUACGCGUA`
Solution: -2.41

Problem: Requested field: self-splicing fitness (ln). Item: `CUUCAGCAAUAUUACGACUG`
Solution: -0.803

Problem: Requested field: self-splicing fitness (ln). Item: `ACAUAGCAAUAUUACGCAUA`
Solution: -3.01

Problem: Requested field: self-splicing fitness (ln). Item: `UGUAAGCAAUAUUACGGCAG`
Solution: -0.191

Problem: Requested field: self-splicing fitness (ln). Item: `CGAAAGCAAUAUUACGAUGU`
Solution: -1.52

====

# experimentNotes: self-splicing fitness, log relative to wild type (ln ratio); higher = more splicing; Tetrahymena group I intron in knt gene, E. coli kanamycin selection, DiMSum; sequences stand for … in CUCUCU…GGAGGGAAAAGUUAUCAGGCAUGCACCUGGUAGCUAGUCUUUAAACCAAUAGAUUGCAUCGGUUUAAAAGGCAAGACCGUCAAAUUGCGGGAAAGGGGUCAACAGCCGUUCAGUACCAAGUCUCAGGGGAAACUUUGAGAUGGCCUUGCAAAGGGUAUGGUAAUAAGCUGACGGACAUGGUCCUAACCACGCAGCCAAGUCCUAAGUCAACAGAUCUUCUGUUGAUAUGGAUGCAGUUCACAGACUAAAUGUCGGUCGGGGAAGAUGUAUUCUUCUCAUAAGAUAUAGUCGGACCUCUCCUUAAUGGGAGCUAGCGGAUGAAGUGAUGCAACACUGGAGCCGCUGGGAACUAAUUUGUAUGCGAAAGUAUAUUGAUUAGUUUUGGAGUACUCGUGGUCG
# appliedConditions: 30 °C
Measured self-splicing fitness (ln) accompanies every entry in the list below.

# residues, self-splicing fitness (ln)
data = [
    ("UAUGAGCAAUAUUACGGCGC", -3.47),
    ("CCUCAGCAAUAUUACGCGAC", -3.47),
    ("UGCGAGCAAUAUUACGAACA", -1.47),
    ("CUGGAGCAAUAUUACGCUUA", -2.59),
]

Problem: Requested field: self-splicing fitness (ln). Item: `GAGGAGCAAUAUUACGUGAA`
Solution: -2.45

Problem: Requested field: self-splicing fitness (ln). Item: `AUAGAGCAAUAUUACGUAGU`
Solution: -1.69

Problem: Requested field: self-splicing fitness (ln). Item: `CAAUAGCAAUAUUACGGUGU`
Solution: -3.14

Problem: Requested field: self-splicing fitness (ln). Item: `UCAGAGCAAUAUUACGUUAC`
Solution: -3.21

====

# experimentNotes: self-splicing fitness, log relative to wild type (ln ratio); higher = more splicing; Tetrahymena group I intron in knt gene, E. coli kanamycin selection, DiMSum; sequences stand for … in CUCUCU…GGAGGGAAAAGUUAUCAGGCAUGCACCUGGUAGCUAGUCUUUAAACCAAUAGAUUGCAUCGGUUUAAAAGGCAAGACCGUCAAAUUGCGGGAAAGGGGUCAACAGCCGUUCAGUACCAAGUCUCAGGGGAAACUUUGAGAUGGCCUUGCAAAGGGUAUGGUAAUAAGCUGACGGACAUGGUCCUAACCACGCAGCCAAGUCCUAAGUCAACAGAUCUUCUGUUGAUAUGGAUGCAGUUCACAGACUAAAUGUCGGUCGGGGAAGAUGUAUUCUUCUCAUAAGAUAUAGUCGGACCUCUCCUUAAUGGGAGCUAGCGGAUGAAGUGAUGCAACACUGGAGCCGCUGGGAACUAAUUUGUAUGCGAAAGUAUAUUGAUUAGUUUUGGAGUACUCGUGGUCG
# appliedConditions: 37 °C
Measured self-splicing fitness (ln) accompanies every entry in the list below.
I only need the number, thanks.

# residues, self-splicing fitness (ln)
data = [
    ("UAUAAGCAAUAUUACGAGAU", -2.54),
    ("AGUUAGCAAUAUUACGAUGA", -0.239),
]

Problem: Requested field: self-splicing fitness (ln). Item: `ACGAAGCAAUAUUACGUCUU`
Solution: -1.91

Problem: Requested field: self-splicing fitness (ln). Item: `AUUCAGCAAUAUUACGAAUU`
Solution: -2.29

Problem: Requested field: self-splicing fitness (ln). Item: `AACCAGCAAUAUUACGUCGC`
Solution: -0.689

Problem: Requested field: self-splicing fitness (ln). Item: `GGAAAGCAAUAUUACGAUGA`
Solution: -0.498

Problem: Requested field: self-splicing fitness (ln). Item: `GCUGAGCAAUAUUACGCAGU`
Solution: -3.31

Problem: Requested field: self-splicing fitness (ln). Item: `CUGGAGCAAUAUUACGAGUG`
Solution: -0.568

Problem: Requested field: self-splicing fitness (ln). Item: `CUCAAGCAAUAUUACGGCAA`
Solution: -1.32

Problem: Requested field: self-splicing fitness (ln). Item: `AGCCAGCAAUAUUACGAAUA`
Solution: -2.94

Problem: Requested field: self-splicing fitness (ln). Item: `UCGAAGCAAUAUUACGUUUG`
Solution: -1.88

Problem: Requested field: self-splicing fitness (ln). Item: `ACUGAGCAAUAUUACGUCGA`
Solution: -2.07

Problem: Requested field: self-splicing fitness (ln). Item: `GCCAAGCAAUAUUACGUAUG`
Solution: -1

Problem: Requested field: self-splicing fitness (ln). Item: `UAUGAGCAAUAUUACGAUAA`
Solution: -2.74

Problem: Requested field: self-splicing fitness (ln). Item: `CUUCAGCAAUAUUACGAAGG`
Solution: -1.08

Problem: Requested field: self-splicing fitness (ln). Item: `ACUCAGCAAUAUUACGACCU`
Solution: 0.216

====

# experimentNotes: self-splicing fitness, log relative to wild type (ln ratio); higher = more splicing; Tetrahymena group I intron in knt gene, E. coli kanamycin selection, DiMSum; sequences stand for … in CUCUCU…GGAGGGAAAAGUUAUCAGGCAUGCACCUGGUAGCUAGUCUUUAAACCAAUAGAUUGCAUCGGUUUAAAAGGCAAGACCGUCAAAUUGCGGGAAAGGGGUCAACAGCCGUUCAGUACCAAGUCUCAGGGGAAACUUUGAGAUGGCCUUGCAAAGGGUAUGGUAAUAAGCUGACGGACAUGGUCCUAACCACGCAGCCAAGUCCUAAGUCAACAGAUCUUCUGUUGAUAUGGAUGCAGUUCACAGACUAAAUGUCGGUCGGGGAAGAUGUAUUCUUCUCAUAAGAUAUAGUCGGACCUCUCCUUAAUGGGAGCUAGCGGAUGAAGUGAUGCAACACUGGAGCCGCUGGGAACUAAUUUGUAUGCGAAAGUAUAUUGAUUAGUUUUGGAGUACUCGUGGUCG
# appliedConditions: 37 °C
reportedMetric: self-splicing fitness (ln)

Example entries begin here.
# residues, self-splicing fitness (ln)
records = [
    ("GCCUAGCAAUAUUACGGAGG", -2.65),
    ("AUGUAGCAAUAUUACGGCUA", -2.14),
    ("UGACAGCAAUAUUACGCGUG", 0.0478),
    ("CACAAGCAAUAUUACGGUCC", -1.99),
    ("CAAGAGCAAUAUUACGGAAU", -2.42),
    ("AAUAAGCAAUAUUACGUCUU", -0.0919),
    ("GAAUAGCAAUAUUACGGUAU", -1.32),
    ("CCCUAGCAAUAUUACGAGUG", -2.28),
    ("AAAUAGCAAUAUUACGCGCG", -0.952),
    ("AACAAGCAAUAUUACGACGU", 0.441),
]

Problem: Requested field: self-splicing fitness (ln). Item: `CUAAAGCAAUAUUACGGCCU`
Solution: -2.5

Problem: Requested field: self-splicing fitness (ln). Item: `GGCCAGCAAUAUUACGUAAA`
Solution: -0.35

Problem: Requested field: self-splicing fitness (ln). Item: `GCUUAGCAAUAUUACGCGUU`
Solution: 0.0522

Problem: Requested field: self-splicing fitness (ln). Item: `UCAAAGCAAUAUUACGCGCA`
Solution: -0.207

Problem: Requested field: self-splicing fitness (ln). Item: `CUAAAGCAAUAUUACGGUCG`
Solution: 0.151

Problem: Requested field: self-splicing fitness (ln). Item: `GGUCAGCAAUAUUACGGUGC`
Solution: 0.535

Problem: Requested field: self-splicing fitness (ln). Item: `UUAGAGCAAUAUUACGAUAU`
Solution: -1.54

Problem: Requested field: self-splicing fitness (ln). Item: `GAAGAGCAAUAUUACGAUUU`
Solution: -1.04

Problem: Requested field: self-splicing fitness (ln). Item: `AUGCAGCAAUAUUACGGGCC`
Solution: -1.02

Problem: Requested field: self-splicing fitness (ln). Item: `UAAGAGCAAUAUUACGCCAU`
Solution: -1.46

Problem: Requested field: self-splicing fitness (ln). Item: `CCUAAGCAAUAUUACGAUAA`
Solution: -3.37

Problem: Requested field: self-splicing fitness (ln). Item: `AUGUAGCAAUAUUACGUUAU`
Solution: -2.12

Problem: Requested field: self-splicing fitness (ln). Item: `AUAGAGCAAUAUUACGGACA`
Solution: -0.896

Problem: Requested field: self-splicing fitness (ln). Item: `GGUCAGCAAUAUUACGAACG`
Solution: 0.332

Problem: Requested field: self-splicing fitness (ln). Item: `CACGAGCAAUAUUACGCCGG`
Solution: -2.6

Problem: Requested field: self-splicing fitness (ln). Item: `GUGAAGCAAUAUUACGCCAU`
Solution: -1.14
